assay: gradient 5% acetonitrile 3 min, to 50% in 2 min, to 85% in 15 min, held 3 min, 100 µL/min; settings: column: Zorbax Extend-C18 2.1 x 50 mm; eluents: water / acetonitrile, 0.1% formic acid
readout.name: RP-LC retention time (s)

compound	recorded.measurement
O=S(=O)(Nc1cccc(-c2cn3ccccc3n2)c1)c1ccccc1	626
O=C(COc1ccccc1F)NC1CCCC(OC(=O)Nc2ccccc2)C1 (stereo not given)	872
CCOc1ccccc1CN1CCn2c(nnc2[C@@H]2C[C@@H](O)CN2Cc2cccnc2)C1	581
CCc1ccc(NS(=O)(=O)c2ccc(-c3c(C)noc3C)cc2)cc1	996
CCCC(NC(=O)c1cc(OC)cc(OC)c1)C(=O)Nc1nc2ccccc2[nH]1 (stereo not given)	719
